- TARGET_OR_SYSTEM: Adenosine receptor A1 (Rattus norvegicus)
- Sequence (P25099 whole entry): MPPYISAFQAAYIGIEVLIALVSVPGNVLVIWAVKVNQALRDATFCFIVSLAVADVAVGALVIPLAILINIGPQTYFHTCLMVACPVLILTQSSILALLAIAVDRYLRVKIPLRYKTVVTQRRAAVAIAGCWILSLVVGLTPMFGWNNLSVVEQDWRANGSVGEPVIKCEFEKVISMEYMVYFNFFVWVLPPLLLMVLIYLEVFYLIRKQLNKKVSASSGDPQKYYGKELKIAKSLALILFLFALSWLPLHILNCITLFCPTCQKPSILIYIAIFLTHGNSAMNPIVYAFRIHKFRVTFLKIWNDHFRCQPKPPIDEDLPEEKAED
- ASSAY_DETAILS: Displacement of [3H]CCPA from A1 receptor in rat brain cortex membranes by liquid scintillation counting method
- Format: cell membranes
REPORTED_PROPERTY: Ki

# count of solved cases: 4
Cn1c(=O)c2c(nc3n2CCN(CCc2ccccc2F)C3)n(C)c1=O; > 1.5 µM
Cn1c(=O)c2c(nc3n2CCN(C2CCN(Cc4ccccc4)CC2)C3)n(C)c1=O; > 1.5 µM
Cn1c(=O)c2c(nc3n2CCN(CCCn2ccnc2)C3)n(C)c1=O; > 1.5 µM
Cn1c(=O)c2c(nc3n2CCN(Cc2csc(-c4ccc(Cl)cc4)n2)C3)n(C)c1=O; 0.076 µM

## Task Any idea what its Ki is? The compound is Cn1c(=O)c2c(nc3n2CCN(CCc2ccc(Cl)cc2Cl)C3)n(C)c1=O
## Result 0.416 µM

## Task Any idea what its Ki is? The compound is Cn1c(=O)c2c(nc3n2CCN(CCOc2ccccc2F)C3)n(C)c1=O
## Result > 1.5 µM

## Task Any idea what its Ki is? The compound is Cn1c(=O)c2c(nc3n2CCN(c2cccc(F)c2)C3)n(C)c1=O
## Result > 1.5 µM

## Task Any idea what its Ki is? The compound is Cn1c(=O)c2c(nc3n2CCN(CCc2cc(C(F)(F)F)ccc2F)C3)n(C)c1=O
## Result > 1.5 µM

## Task Any idea what its Ki is? The compound is COc1ccccc1CCN1CCn2c(nc3c2c(=O)n(C)c(=O)n3C)C1
## Result > 1.5 µM

## Task Any idea what its Ki is? The compound is Cn1c(=O)c2c(nc3n2CCN(CCOc2ccc(Cl)c(Cl)c2)C3)n(C)c1=O
## Result 1.25 µM

## Task Any idea what its Ki is? The compound is Cn1c(=O)c2c(nc3n2CCN(c2cccc4ccccc24)C3)n(C)c1=O
## Result > 1.5 µM

## Task Any idea what its Ki is? The compound is COc1cccc(CCN2CCn3c(nc4c3c(=O)n(C)c(=O)n4C)C2)c1
## Result > 1.5 µM

## Task Any idea what its Ki is? The compound is Cn1c(=O)c2c(nc3n2CCN(C2Cc4ccccc4C2)C3)n(C)c1=O
## Result > 1.5 µM

====

- TARGET_OR_SYSTEM: Adenosine receptor A3 (Homo sapiens) (UniProt P0DMS8)
- Sequence (whole entry): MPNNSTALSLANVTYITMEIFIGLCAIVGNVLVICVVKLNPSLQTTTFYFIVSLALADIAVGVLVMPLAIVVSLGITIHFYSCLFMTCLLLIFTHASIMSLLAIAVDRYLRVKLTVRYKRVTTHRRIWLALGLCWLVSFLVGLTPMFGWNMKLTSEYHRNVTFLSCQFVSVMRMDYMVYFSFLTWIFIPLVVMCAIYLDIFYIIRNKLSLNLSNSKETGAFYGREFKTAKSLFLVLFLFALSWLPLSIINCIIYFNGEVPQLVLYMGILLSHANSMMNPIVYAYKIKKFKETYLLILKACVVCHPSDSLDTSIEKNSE
- ASSAY_DETAILS: Displacement of [3H]PSB-11 from human A3 receptor expressed in CHO cell membrane at 10 uM by liquid scintillation counting method relative to control relative to control
- Type: cell membranes
REPORTED_PROPERTY: Activity (%)

A: Cn1c(=O)c2c(nc3n2CCN(CCc2ccccc2F)C3)n(C)c1=O
B: Cn1c(=O)c2c(nc3n2CCN(CC#Cc2cccc(Cl)c2)C3)n(C)c1=O
## Task // task: argmin of Activity over [ A , B ] Lab note: record the label of whichever item you select.
## Result B

a: Cn1c(=O)c2c(nc3n2CCN([C@@H]2CCc4ccccc42)C3)n(C)c1=O
b: C#CCN1CCn2c(nc3c2c(=O)n(C)c(=O)n3C)C1
## Task // task: argmin of Activity over [ a , b ] Lab note: record the label of whichever item you select.
## Result b

P: Cn1c(=O)c2c(nc3n2CCN(CCc2ccccc2Cl)C3)n(C)c1=O
Q: Cn1c(=O)c2c(nc3n2CCN(CCCn2ccnc2)C3)n(C)c1=O
## Task Compare the recorded Activity of P and Q ; state which is larger. Lab note: record the label of whichever item you select.
## Result P

A: Cn1c(=O)c2c(nc3n2CCN(CCc2ccc(Cl)cc2C(F)(F)F)C3)n(C)c1=O
B: Cn1c(=O)c2c(nc3n2CCN(Cc2cn(-c4ccc(Cl)cc4)nn2)C3)n(C)c1=O
## Task Compare the recorded Activity of A and B ; state which is larger. Lab note: record the label of whichever item you select.
## Result A
(A: 25%, B: 11%)
